test.system: 5-HT2A receptor (Homo sapiens)
protocol.details: cell-based
Type: cell-based
recorded.conditions: EC50, 5-HT2A stimulation of IP-1 formation, mean ± sem
Below is a list of entries, each paired with its recorded EC50 value.
endpoint.label: EC50 (nM)

- COc1cc(CCNCc2ccccc2OC)c(OC)cc1C [25D-NBOMe]: 1.53
- COc1cc(CCNCc2ccccc2O)c(OC)cc1I [25I-NBOH]: 0.76
- CCc1cc(OC)c(CCNCc2ccccc2OC)cc1OC [25E-NBOMe]: 0.5
- COc1ccc(OC)c(CCNCc2ccccc2OC)c1 [25H-NBOMe]: 40.7

* * *

test.system: 5-HT2B receptor (Homo sapiens)
Sequence (P41595 whole entry): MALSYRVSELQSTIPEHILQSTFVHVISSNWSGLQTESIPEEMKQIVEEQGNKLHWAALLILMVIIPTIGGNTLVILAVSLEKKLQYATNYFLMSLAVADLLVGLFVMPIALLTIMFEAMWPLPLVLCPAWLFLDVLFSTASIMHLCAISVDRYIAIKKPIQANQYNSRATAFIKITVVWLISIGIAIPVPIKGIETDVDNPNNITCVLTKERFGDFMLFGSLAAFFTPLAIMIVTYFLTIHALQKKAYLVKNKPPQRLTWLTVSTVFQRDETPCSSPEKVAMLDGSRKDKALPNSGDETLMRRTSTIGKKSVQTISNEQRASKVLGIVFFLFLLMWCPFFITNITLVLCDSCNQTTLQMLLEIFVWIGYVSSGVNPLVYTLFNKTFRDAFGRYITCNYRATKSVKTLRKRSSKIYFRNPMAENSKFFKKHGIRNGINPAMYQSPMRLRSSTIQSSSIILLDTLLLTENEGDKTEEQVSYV
protocol.details: 5-HT2B receptor inositol monophosphate
Format: cell-based
pEC50: −log10 of the molar value.
endpoint.label: pEC50

- COc1ccc(OC)c(CCNCc2ccccc2OC)c1 [25H-NBOMe]: 6.33
- COc1cc(CCNCc2ccccc2OC)c(OC)cc1C [25D-NBOMe]: 7.49
- CCc1cc(OC)c(CCNCc2ccccc2OC)cc1OC [25E-NBOMe]: 7.63
- COc1cc(CCNCc2ccccc2O)c(OC)cc1I [25I-NBOH]: 6.95

* * *

test.system: 5-HT2A receptor (Homo sapiens, UniProt P28223)
Sequence (P28223 whole entry): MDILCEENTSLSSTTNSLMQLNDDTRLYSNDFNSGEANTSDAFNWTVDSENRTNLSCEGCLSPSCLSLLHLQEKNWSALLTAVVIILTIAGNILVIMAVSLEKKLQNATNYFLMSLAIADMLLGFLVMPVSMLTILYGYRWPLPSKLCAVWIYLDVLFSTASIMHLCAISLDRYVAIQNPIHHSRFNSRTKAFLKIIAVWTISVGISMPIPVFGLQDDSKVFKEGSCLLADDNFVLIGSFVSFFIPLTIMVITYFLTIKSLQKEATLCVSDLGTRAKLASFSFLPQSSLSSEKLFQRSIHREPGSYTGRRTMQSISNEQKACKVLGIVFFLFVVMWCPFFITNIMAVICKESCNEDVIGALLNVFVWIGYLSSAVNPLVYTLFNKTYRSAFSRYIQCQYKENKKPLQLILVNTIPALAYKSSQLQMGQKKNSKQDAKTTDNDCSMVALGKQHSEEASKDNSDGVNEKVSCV
protocol.details: cell-based
Format: cell-based
recorded.conditions: read-out: EC50, 5-HT2A stimulation of IP-1 formation
endpoint.label: EC50 (µM)

* COc1cc(CC(C)N)c(OC)cc1C (single isomer, unassigned; (-)) [DOM, (-)2,5-dimethoxy-4-methylamphetamine, reference compound] | 0.0399

* * *

test.system: hSERT (Homo sapiens)
protocol.details: Inhibition of [^3H]5-HT uptake by HEK-hSERT cells
pIC50: −log10 of the molar value.
endpoint.label: pIC50

- CCc1cc(OC)c(CCNCc2ccccc2OC)cc1OC [25E-NBOMe]: 5.84
- OC1(c2ccc(Cl)cc2)c2ccccc2C2=NCCN21 (centres unmarked) [Mazindol, reference compound]: 7.16
- COc1ccc(OC)c(CCNCc2ccccc2OC)c1 [25H-NBOMe]: 5.68
- COc1cc(CCNCc2ccccc2O)c(OC)cc1I [25I-NBOH]: 5.76
- COc1cc(CCNCc2ccccc2OC)c(OC)cc1C [25D-NBOMe]: 5.99

* * *

Below is a list of entries, each paired with its recorded % maximum release, hSERT [^3H]5-HT value.
test.system: hSERT (Homo sapiens, UniProt P31645)
Sequence (P31645 whole entry): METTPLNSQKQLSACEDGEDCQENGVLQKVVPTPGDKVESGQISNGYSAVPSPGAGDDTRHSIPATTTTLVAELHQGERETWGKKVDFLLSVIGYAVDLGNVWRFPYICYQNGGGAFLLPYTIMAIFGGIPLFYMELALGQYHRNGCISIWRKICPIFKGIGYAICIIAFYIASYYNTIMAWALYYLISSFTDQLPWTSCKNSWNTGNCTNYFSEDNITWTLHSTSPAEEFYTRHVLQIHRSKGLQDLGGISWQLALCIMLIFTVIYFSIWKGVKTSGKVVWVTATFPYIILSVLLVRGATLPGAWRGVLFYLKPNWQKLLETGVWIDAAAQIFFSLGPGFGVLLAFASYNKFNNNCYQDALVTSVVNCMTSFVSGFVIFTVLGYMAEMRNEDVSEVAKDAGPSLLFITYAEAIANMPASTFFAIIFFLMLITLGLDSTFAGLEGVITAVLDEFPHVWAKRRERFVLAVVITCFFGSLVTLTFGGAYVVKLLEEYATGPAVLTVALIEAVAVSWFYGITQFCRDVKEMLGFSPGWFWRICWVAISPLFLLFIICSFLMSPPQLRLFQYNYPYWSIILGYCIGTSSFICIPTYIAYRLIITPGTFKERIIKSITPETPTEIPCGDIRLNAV
protocol.details: Release of preloaded [^3H]5-HT from HEK-hSERT cells
Assay type: cell-based
recorded.conditions: relative to maximum release induced by METH (0.3–1 mM)
endpoint.label: % maximum release, hSERT [^3H]5-HT (%)

- COc1cc(CCNCc2ccccc2O)c(OC)cc1I [25I-NBOH]: −0.27
- CCN(CC)C(=O)[C@@H]1C=C2c3cccc4[nH]cc(c34)C[C@H]2N(C)C1 [LSD, (+)lysergic acid diethylamide, reference compound]: −0.59
- CCc1cc(OC)c(CCNCc2ccccc2OC)cc1OC [25E-NBOMe]: 0.21
- CN[C@@H](C)Cc1ccccc1 [METH, (S+)methamphetamine, reference compound]: 104.9
- COc1cc(CCNCc2ccccc2OC)c(OC)cc1C [25D-NBOMe]: 0.59
- COc1ccc(OC)c(CCNCc2ccccc2OC)c1 [25H-NBOMe]: −0.27
- COc1cc(CC(C)N)c(OC)cc1C (single isomer, unassigned; (-)) [DOM, (-)2,5-dimethoxy-4-methylamphetamine, reference compound]: 2.9
- COc1cc([N+](=O)[O-])c(OC)cc1CCNCc1ccccc1OC [25N-NBOMe]: −0.25

* * *

test.system: UniProt:P28223
protocol.details: biochemical
Assay type: binding
recorded.conditions: ratio of Ki values
Below is a list of entries, each paired with its recorded Selectivity (binding ratios) 5-HT2A : 5-HT2C value.
endpoint.label: Selectivity (binding ratios) 5-HT2A : 5-HT2C

• COc1ccc(OC)c(CCNCc2ccccc2OC)c1 [25H-NBOMe] = 3.3
• CCc1cc(OC)c(CCNCc2ccccc2OC)cc1OC [25E-NBOMe] = 2.4
• COc1cc(CCNCc2ccccc2OC)c(OC)cc1C [25D-NBOMe] = 3.1
• COc1cc(CCNCc2ccccc2O)c(OC)cc1I [25I-NBOH] = 6.1
• COc1cc([N+](=O)[O-])c(OC)cc1CCNCc1ccccc1OC [25N-NBOMe] = 7.4

* * *

Below is a list of entries, each paired with its recorded EC50 value.
test.system: hDAT (Homo sapiens, UniProt Q01959)
Sequence (Q01959 whole entry): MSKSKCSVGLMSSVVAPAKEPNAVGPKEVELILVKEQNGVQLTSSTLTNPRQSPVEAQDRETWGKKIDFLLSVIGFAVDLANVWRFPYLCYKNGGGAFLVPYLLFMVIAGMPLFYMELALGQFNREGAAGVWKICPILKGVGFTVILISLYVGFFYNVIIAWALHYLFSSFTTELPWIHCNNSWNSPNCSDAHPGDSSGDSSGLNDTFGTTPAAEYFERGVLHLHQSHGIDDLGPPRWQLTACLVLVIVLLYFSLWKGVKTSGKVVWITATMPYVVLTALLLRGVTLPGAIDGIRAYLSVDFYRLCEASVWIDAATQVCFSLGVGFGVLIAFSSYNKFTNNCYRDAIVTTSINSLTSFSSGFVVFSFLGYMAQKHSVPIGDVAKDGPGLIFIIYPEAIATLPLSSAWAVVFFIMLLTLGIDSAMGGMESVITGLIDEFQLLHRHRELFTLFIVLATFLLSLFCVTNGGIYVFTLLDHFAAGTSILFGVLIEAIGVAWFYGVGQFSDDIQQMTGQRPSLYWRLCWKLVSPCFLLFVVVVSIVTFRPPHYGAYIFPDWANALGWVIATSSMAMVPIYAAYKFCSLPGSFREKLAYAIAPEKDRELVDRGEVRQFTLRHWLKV
protocol.details: Release of preloaded [^3H]DA from HEK-hDAT cells
Type: cell-based
endpoint.label: EC50

* CCc1cc(OC)c(CCNCc2ccccc2OC)cc1OC [25E-NBOMe] | > 85 µM
* COc1cc(CCNCc2ccccc2O)c(OC)cc1I [25I-NBOH] | > 100 µM
* COc1ccc(OC)c(CCNCc2ccccc2OC)c1 [25H-NBOMe] | > 100 µM
* COc1cc(CCNCc2ccccc2OC)c(OC)cc1C [25D-NBOMe] | > 100 µM

* * *

test.system: hNET (Homo sapiens)
Sequence (P23975 whole entry): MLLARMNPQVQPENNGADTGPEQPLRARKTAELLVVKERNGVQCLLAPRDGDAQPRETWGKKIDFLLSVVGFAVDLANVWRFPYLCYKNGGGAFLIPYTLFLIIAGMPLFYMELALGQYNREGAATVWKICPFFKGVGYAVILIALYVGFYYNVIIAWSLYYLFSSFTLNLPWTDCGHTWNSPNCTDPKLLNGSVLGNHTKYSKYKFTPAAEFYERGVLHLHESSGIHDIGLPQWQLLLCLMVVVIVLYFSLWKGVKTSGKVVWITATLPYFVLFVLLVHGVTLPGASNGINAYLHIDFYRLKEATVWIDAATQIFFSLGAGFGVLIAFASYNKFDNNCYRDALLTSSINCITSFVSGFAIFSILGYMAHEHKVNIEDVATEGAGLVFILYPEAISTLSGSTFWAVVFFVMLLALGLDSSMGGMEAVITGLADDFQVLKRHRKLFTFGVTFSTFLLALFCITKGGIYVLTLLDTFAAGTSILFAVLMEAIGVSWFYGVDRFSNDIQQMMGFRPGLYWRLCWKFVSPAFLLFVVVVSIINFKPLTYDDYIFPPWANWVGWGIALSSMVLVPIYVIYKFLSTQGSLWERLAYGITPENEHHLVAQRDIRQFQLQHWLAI
protocol.details: Release of preloaded [^3H]NE from HEK-hNET cells
Type: cell-based
recorded.conditions: read-out: Drug-induced release of [^3H]neurotransmitter EC50, hNET [^3H]NE; mean ± sem; HEK-hNET
pEC50: −log10 of the molar value.
endpoint.label: pEC50

* COc1cc([N+](=O)[O-])c(OC)cc1CCNCc1ccccc1OC [25N-NBOMe] | < 4.42
* COc1cc(CC(C)N)c(OC)cc1C (single isomer, unassigned; (-)) [DOM, (-)2,5-dimethoxy-4-methylamphetamine, reference compound] | < 4.38
* CCN(CC)C(=O)[C@@H]1C=C2c3cccc4[nH]cc(c34)C[C@H]2N(C)C1 [LSD, (+)lysergic acid diethylamide, reference compound] | < 4.04
* CN[C@@H](C)Cc1ccccc1 [METH, (S+)methamphetamine, reference compound] | 6.82

* * *

test.system: 5-HT2B receptor (Homo sapiens)
protocol.details: 5-HT2B receptor inositol monophosphate
Type: cell-based
recorded.conditions: read-out: EC50, 5-HT2B stimulation of IP-1 formation; mean ± sem
endpoint.label: EC50

* COc1cc([N+](=O)[O-])c(OC)cc1CCNCc1ccccc1OC [25N-NBOMe] | 47 nM
* COc1cc(CC(C)N)c(OC)cc1C (single isomer, unassigned; (-)) [DOM, (-)2,5-dimethoxy-4-methylamphetamine, reference compound] | 145 nM

* * *

test.system: human 5-HT1A receptor (Homo sapiens, UniProt P08908)
Sequence (P08908 whole entry): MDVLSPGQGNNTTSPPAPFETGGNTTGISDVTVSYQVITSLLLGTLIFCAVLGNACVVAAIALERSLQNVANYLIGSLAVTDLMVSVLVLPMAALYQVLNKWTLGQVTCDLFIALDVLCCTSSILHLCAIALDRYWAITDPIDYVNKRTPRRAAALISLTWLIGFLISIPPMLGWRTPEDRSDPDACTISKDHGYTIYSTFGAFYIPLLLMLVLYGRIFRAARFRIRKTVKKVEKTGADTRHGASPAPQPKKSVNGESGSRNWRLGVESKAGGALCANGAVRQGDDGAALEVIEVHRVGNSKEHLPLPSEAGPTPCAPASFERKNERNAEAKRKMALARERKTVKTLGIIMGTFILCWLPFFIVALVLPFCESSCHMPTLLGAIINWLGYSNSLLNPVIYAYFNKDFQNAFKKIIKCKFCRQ
protocol.details: 5-HT1A receptor [^35S]GTPγS binding stimulation
Assay type: biochemical
endpoint.label: EC50 (µM)

- COc1cc(CCNCc2ccccc2O)c(OC)cc1I [25I-NBOH]: 37
- COc1ccc(OC)c(CCNCc2ccccc2OC)c1 [25H-NBOMe]: 28.4
- COc1cc(CCNCc2ccccc2OC)c(OC)cc1C [25D-NBOMe]: 5.9
- CCc1cc(OC)c(CCNCc2ccccc2OC)cc1OC [25E-NBOMe]: 13.7

* * *

test.system: 5-HT2A receptor (Homo sapiens, UniProt P28223)
protocol.details: cell-based
Format: cell-based
recorded.conditions: ratio of EC50 values
Class satisfied: Selectivity (functional ratios) 5-HT2A: 5-HT2C at least 2. Class not satisfied: Selectivity (functional ratios) 5-HT2A: 5-HT2C below 2.

• COc1ccc(OC)c(CCNCc2ccccc2OC)c1 [25H-NBOMe] = not satisfied
• COc1cc(CCNCc2ccccc2OC)c(OC)cc1C [25D-NBOMe] = not satisfied
• CCc1cc(OC)c(CCNCc2ccccc2OC)cc1OC [25E-NBOMe] = not satisfied
• COc1cc(CCNCc2ccccc2O)c(OC)cc1I [25I-NBOH] = satisfied
• COc1cc([N+](=O)[O-])c(OC)cc1CCNCc1ccccc1OC [25N-NBOMe] = satisfied

* * *

test.system: UniProt P08908
protocol.details: 5-HT1A receptor [^3H]8-OH-DPAT radioligand binding
endpoint.label: Ki (nM)

• COc1cc(CCNCc2ccccc2O)c(OC)cc1I [25I-NBOH] = 2220
• COc1cc(CCNCc2ccccc2OC)c(OC)cc1C [25D-NBOMe] = 4510
• CCc1cc(OC)c(CCNCc2ccccc2OC)cc1OC [25E-NBOMe] = 1680

* * *

test.system: 5-HT2A receptor (Homo sapiens, UniProt P28223)
protocol.details: cell-based
Assay type: cell-based
recorded.conditions: read-out: % maximum stimulation, 5-HT2A stimulation of IP-1 formation
endpoint.label: Emax (%)

* COc1cc(CCNCc2ccccc2O)c(OC)cc1I [25I-NBOH] | 87.5
* COc1cc(CCNCc2ccccc2OC)c(OC)cc1C [25D-NBOMe] | 95.1
* COc1ccc(OC)c(CCNCc2ccccc2OC)c1 [25H-NBOMe] | 85.9
* CCc1cc(OC)c(CCNCc2ccccc2OC)cc1OC [25E-NBOMe] | 87.1

// data source = paper PMC6298744
